# assayed.target: DQA1*0102:DQB1*0602 (Homo sapiens, UniProt P01909+P01920, A157G/A45G/C70R/E118A/E183D/E77G/F83G/G63E/H151Q/H199R/H252R/H253Q/I129T/I235V/I88M/INS77G/K197Q/L117V/L119F/L178F/L71W/L74F/L85Q/L91A/L98M/N214S/P87R/Q116E/Q76K/R102G/R240Q/R75S/R78G/S102Y/S185I/S41F/S97I/T121G/T122I/T172A/T86R/V229M/V68A/V73E/Y34C/Y41F/Y58L)
# Construct: purchased ProImmune (REVEAL technology)
# Sequence (P01909 with tags, fused parts or gaps with the stated changes, other chains not shown): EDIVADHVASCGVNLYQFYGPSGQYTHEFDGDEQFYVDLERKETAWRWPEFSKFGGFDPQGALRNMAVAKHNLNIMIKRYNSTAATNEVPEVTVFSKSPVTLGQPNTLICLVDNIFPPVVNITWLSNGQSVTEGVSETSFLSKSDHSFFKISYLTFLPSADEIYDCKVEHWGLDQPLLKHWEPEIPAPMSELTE
# Assay type: binding
quantity.measured: REVEAL 24 hours (%)
The answer is to be given in %; state only the numeric part.

// worked examples, REVEAL 24 hours included
MNLPSIKVSWAAVTL [compound 11]
20.8
SGAAGAAVKGVGTMV [compound 6]
0.1
ALSRGFGSGIITSNA [compound 18]
0.0
ALNRGSGSGIITSDA [compound 17]
0.0
MNLPSMKVSWAAVTL [compound 12]
3.7

# return recorded REVEAL 24 hours for input AMERNAGSGIIISDT [compound 16]
0.0

====

# assayed.target: DQA1*0102:DQB1*0602 (Homo sapiens, UniProt P01909+P01920, A157G/A45G/C70R/E118A/E183D/E77G/F83G/G63E/H151Q/H199R/H252R/H253Q/I129T/I235V/I88M/INS77G/K197Q/L117V/L119F/L178F/L71W/L74F/L85Q/L91A/L98M/N214S/P87R/Q116E/Q76K/R102G/R240Q/R75S/R78G/S102Y/S185I/S41F/S97I/T121G/T122I/T172A/T86R/V229M/V68A/V73E/Y34C/Y41F/Y58L)
# Construct: purchased ProImmune (REVEAL technology)
# Type: binding
Classification field: enter Y for Stability index values not below 0.3, N for values below it.

The examples below pair each entry with its known result.
GAGNHAAGILTLGKR (listed as Homo sapiens) [compound 14, Orexin fragment HCRT56-68]
N
MNLPSMKVSWAAVTL [compound 12]
Y
LILYDKEERRRRWRQ [compound 9]
Y

Switching to the query record.
Quick check, Stability index >= 0.3? AMERNAGSGIIISDT [compound 16]
N

====

# maps each entry to its REVEAL 24 hours
# assayed.target: DQA1*0101:DQB1*0501 (Homo sapiens, UniProt P01909+P01920, A157S/A45G/A70V/C70R/D89V/E106S/E118A/E183D/E77G/F83G/G63E/H151Q/H199R/H252R/H253Q/I129T/I235V/I88M/INS77G/K197Q/L107V/L117V/L119Y/L178F/L71W/L74F/L85Q/L91A/L98M/M46L/N214S/P87R/Q116E/Q256R/Q57E/Q76K/R102G/R240Q/R75S/R78G/S102Y/S185I/S41F/S97I/T103A/T109R/T121G/T122I/T172A/T86R/V148I/V68A/V73E/Y34C/Y58G/Y62H)
# Construct: purchased ProImmune (REVEAL technology)
# Sequence (P01909 with tags, fused parts or gaps with the stated changes, other chains not shown): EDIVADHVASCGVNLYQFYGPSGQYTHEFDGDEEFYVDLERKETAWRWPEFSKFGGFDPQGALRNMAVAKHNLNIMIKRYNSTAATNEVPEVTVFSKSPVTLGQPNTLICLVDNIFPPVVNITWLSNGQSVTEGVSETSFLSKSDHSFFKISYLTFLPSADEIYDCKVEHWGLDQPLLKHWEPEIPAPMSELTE
# Format: binding
# conditions: after 24 hours
The answer is to be given in %; state only the numeric part.

// worked examples, REVEAL 24 hours included
LILYDKEEMRRIWRQ [compound 4]
0.1
MNLPSTKVSWAAVTL (listed as Homo sapiens) [compound 10, Orexin DQB1*0602 fragment]
0.1
LILYDKEEIRRIWRQ [Peptide #3]
1.2

Next up:
# return recorded REVEAL 24 hours for input LILYDKEERRRRWRQ [compound 9]
6.4
